Origin of values: PubChem BioAssay AID2060618

System: 454973-116-R2-J3-PDC spheroids, percent test/control viability;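 note: spheroids exposed to compounds for 7 days before readout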
Assay: Anticancer human tumor 454973-116-R2-J3-PDC patient-derived pancreatic carcinoma cell line growth inhibition [CLK]
Details: second compound 0.1 µM; first compound 0.0316 µM; stronger effect = lower value; spheroids with HUVEC and MSC
value-kind: viability, T/C (%)
Express it in %; write the number only.

Answered cases to consult:
>>> recorded_value("CC1(C)CCC(CN2CCN(c3ccc(C(=O)NS(=O)(=O)c4ccc(NCC5CCOCC5)c([N+](=O)[O-])c4)c(Oc4cnc5[nH]ccc5c4)c3)CC2)=C(c2ccc(Cl)cc2)C1 + CN1CCN(c2cc(C(=O)Nc3cc4cc(-c5cnn(C)c5)ccc4cn3)ccn2)CC1")
80
>>> recorded_value("CC(CO)NC(=O)c1cc(-c2ccc(Cl)cc2)nn(-c2cnn(C)c2)c1=O (stereo unspecified) + CN1CCN(c2cc(C(=O)Nc3cc4cc(-c5cnn(C)c5)ccc4cn3)ccn2)CC1")
76.9
>>> recorded_value("Cn1ncnc1[C@H]1c2n[nH]c(=O)c3cc(F)cc(c23)N[C@@H]1c1ccc(F)cc1 + CNC(=O)c1ccc(Nc2nc(OC3CCCC3)c3c(-c4ccc5nc(C)oc5c4)c[nH]c3n2)c(OC)c1")
104
>>> recorded_value("Nc1ccccc1NC(=O)c1ccc(CNC(=O)OCc2cccnc2)cc1 + CN1CCN(c2cc(C(=O)Nc3cc4cc(-c5cnn(C)c5)ccc4cn3)ccn2)CC1")
73.5
>>> recorded_value("CC1COCCN1c1cc(C2(S(C)(=N)=O)CC2)nc(-c2ccnc3[nH]ccc23)n1 (stereo unspecified) + CN1CCN(c2cc(C(=O)Nc3cc4cc(-c5cnn(C)c5)ccc4cn3)ccn2)CC1")
73.4
>>> recorded_value("COc1c(OCCCN2CCOCC2)ccc2c3n(c(=NC(=O)c4cnc(N)nc4)nc12)CCN3 + CNC(=O)c1ccc(Nc2nc(OC3CCCC3)c3c(-c4ccc5nc(C)oc5c4)c[nH]c3n2)c(OC)c1")
70.5

Asked: For the compound shown here, O=c1[nH]cc(F)c(=O)[nH]1 + CNC(=O)c1ccc(Nc2nc(OC3CCCC3)c3c(-c4ccc5nc(C)oc5c4)c[nH]c3n2)c(OC)c1 , give the reported viability, T/C.
Given back: 100

Asked: For the compound shown here, CCCS(=O)(=O)Nc1ccc(F)c(C(=O)c2c[nH]c3ncc(-c4ccc(Cl)cc4)cc23)c1F + CN1CCN(c2cc(C(=O)Nc3cc4cc(-c5cnn(C)c5)ccc4cn3)ccn2)CC1 , give the reported viability, T/C.
Given back: 73.9
